# system_under_test: Nuclear receptor subfamily 1 group I member 2 (Homo sapiens)
# Sequence (O75469 whole entry): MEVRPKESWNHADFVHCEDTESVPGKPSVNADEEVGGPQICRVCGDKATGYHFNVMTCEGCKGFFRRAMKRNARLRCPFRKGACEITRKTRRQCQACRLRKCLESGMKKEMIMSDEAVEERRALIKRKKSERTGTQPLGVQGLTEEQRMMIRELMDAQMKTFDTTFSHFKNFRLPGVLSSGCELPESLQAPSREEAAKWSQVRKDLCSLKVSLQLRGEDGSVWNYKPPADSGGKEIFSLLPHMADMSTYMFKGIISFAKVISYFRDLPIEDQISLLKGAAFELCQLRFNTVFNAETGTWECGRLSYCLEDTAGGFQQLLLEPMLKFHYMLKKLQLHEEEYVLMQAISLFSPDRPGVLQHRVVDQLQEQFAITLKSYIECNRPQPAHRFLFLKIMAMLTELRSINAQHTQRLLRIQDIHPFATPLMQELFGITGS
# procedure_summary: Induction of human PXR by induction assay
readout_label: IC50

Documented IC50 of `Cc1cc(C(N)=O)nn1-c1cccc(-c2ccc(C(F)(F)F)cc2C(F)(F)F)c1` : > 25 µM

---

# Species: Rattus norvegicus
# procedure_summary: Plasma clearance in rat
# Assay type: ADME, organism-based
# condition_description: in vivo
readout_label: clearance (mL/min/kg)
Numeric answer only, unit mL/min/kg assumed.

Documented clearance of `Cc1cc(C(N)=O)nn1-c1cccc(-c2ccc(C(F)(F)F)cc2C(F)(F)F)c1` : 11

---

# system_under_test: hERG (KCNH2) (Homo sapiens, UniProt Q12809)
# Sequence (Q12809 whole entry): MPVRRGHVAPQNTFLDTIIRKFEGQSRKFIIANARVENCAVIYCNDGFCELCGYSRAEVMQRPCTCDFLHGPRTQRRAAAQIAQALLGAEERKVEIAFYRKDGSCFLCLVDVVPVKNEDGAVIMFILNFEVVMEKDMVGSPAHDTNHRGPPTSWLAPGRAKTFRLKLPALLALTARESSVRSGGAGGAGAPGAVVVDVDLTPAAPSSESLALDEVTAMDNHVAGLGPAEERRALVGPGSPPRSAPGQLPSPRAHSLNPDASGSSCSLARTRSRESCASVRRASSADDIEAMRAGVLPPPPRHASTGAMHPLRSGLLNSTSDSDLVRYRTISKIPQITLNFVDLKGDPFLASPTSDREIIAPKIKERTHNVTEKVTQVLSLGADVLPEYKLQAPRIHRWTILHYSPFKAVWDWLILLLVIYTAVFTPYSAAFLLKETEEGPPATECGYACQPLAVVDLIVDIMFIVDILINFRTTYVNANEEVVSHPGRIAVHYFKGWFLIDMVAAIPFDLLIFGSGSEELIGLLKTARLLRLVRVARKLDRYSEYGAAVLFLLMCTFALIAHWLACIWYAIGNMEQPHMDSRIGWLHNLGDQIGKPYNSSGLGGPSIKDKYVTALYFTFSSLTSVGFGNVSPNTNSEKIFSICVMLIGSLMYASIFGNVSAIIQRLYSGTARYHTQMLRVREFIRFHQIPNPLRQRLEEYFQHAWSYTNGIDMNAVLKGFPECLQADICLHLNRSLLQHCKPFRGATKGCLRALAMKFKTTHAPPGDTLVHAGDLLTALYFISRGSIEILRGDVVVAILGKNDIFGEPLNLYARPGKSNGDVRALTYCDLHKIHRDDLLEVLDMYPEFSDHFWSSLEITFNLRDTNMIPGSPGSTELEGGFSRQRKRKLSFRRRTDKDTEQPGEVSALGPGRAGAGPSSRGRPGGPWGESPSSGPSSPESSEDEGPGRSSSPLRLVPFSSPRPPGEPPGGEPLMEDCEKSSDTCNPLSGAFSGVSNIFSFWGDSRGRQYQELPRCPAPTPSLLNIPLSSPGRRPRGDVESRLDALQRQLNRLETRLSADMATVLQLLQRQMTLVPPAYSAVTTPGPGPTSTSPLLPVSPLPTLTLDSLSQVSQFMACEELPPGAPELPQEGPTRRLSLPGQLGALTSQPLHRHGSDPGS
# procedure_summary: Displacement of [35S][…] from human ERG channel at 10 uM
readout_label: inhibition at 10 µM (%)
Numeric answer only, unit % assumed.

In the examples that follow, each entry is paired with its recorded inhibition at 10 µM.
- mol: "Cc1cc(C(N)=O)nn1-c1cccc(-c2ccccc2Oc2ccccc2)c1"
  unit: "%"
  inhibition at 10 µM: 13
- mol: "Cc1cc(C(N)=O)nn1-c1cccc(-c2ccc(Cl)cc2C(F)(F)F)c1"
  unit: "%"
  inhibition at 10 µM: 45
- mol: "Cc1cc(C(N)=O)nn1-c1cccc(-c2cc(C(F)(F)F)ccc2C(F)(F)F)c1"
  unit: "%"
  inhibition at 10 µM: 51

Documented inhibition at 10 µM of `Cc1cc(C(N)=O)nn1-c1ccc(OC(F)(F)F)c(-c2ccccc2OC(F)(F)F)c1` : 77

Documented inhibition at 10 µM of `Cc1cc(C(N)=O)nn1-c1cccc(-c2ccccc2C(F)(F)F)c1` : 68

Documented inhibition at 10 µM of `NC(=O)c1cc(-c2cccc(-c3ccccc3OC(F)(F)F)c2)n[nH]1` : 94

---

# system_under_test: Sodium channel protein type 9 subunit alpha (Homo sapiens)
# Sequence (Q15858 whole entry): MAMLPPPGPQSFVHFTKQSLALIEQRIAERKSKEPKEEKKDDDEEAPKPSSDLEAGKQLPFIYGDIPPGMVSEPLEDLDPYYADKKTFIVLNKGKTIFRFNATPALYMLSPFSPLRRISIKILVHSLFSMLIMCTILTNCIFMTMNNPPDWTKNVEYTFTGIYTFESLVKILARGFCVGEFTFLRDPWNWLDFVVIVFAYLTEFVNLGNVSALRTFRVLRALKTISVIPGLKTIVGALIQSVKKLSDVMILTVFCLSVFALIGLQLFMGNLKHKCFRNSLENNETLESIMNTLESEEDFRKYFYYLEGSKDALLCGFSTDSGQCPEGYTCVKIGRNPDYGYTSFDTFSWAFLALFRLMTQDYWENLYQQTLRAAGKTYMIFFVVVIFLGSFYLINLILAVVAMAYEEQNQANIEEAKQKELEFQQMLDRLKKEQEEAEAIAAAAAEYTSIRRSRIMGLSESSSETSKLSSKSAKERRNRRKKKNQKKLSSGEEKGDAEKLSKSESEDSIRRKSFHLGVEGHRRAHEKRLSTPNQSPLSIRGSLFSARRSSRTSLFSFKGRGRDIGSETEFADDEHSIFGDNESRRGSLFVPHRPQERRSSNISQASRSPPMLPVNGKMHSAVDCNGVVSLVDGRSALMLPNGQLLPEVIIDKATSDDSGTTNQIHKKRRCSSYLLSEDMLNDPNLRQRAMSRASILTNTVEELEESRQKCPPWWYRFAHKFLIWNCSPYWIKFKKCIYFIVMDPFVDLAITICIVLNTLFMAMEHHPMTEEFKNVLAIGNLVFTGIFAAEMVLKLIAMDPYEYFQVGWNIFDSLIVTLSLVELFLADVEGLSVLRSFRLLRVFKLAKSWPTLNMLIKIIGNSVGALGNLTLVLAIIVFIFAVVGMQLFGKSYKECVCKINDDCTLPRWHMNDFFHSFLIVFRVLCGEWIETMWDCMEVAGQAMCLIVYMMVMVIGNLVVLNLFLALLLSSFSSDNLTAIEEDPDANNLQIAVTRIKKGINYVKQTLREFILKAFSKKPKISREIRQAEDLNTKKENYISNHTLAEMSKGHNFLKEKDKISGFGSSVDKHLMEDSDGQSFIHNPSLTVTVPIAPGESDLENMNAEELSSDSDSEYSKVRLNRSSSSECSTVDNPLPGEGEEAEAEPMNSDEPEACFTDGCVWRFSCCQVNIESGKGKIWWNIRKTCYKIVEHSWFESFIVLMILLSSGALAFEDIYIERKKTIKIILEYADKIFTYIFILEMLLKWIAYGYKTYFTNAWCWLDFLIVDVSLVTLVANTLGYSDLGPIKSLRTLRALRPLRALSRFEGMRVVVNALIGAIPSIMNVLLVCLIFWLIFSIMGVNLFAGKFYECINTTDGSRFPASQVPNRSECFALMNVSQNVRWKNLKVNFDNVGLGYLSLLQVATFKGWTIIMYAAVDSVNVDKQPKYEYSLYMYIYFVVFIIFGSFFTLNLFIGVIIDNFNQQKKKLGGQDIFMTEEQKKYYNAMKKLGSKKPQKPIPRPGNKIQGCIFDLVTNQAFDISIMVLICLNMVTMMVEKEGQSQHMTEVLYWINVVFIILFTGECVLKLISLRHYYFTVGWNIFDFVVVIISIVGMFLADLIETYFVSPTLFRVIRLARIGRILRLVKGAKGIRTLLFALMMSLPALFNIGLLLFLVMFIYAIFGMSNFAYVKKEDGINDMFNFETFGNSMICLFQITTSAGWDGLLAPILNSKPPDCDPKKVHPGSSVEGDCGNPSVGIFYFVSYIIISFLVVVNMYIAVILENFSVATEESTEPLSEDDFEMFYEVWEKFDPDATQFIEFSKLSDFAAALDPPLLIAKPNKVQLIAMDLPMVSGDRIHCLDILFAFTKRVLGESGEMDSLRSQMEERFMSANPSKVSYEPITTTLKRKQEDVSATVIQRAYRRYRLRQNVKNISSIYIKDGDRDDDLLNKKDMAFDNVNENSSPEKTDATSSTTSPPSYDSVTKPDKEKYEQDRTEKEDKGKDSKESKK
# procedure_summary: Inhibition of human Nav 1.7 channel by voltage-ion-probe-reader
readout_label: IC50

In the examples that follow, each entry is paired with its recorded IC50.
- mol: "Cc1cc(C(N)=O)nn1-c1cccc(-c2ccc(C(F)(F)F)cc2C(F)(F)F)c1"
  system_under_test: "Sodium channel protein type 9 subunit alpha (Homo sapiens)"
  IC50: "0.426 µM"
- mol: "Cc1cc(C(N)=O)nn1-c1cccc(-c2ccccc2OCC(F)(F)C(F)(F)F)c1"
  system_under_test: "Sodium channel protein type 9 subunit alpha (Homo sapiens)"
  IC50: "0.128 µM"

Documented IC50 of `NC(=O)c1ccn(-c2cccc(-c3ccccc3OC(F)(F)F)c2)n1` : 0.065 µM

Documented IC50 of `Cc1cc(C(N)=O)nn1-c1cccc(-c2cc(F)ccc2C(F)(F)F)c1` : 0.412 µM

Documented IC50 of `NC(=O)c1cc(N)n(-c2cccc(-c3ccccc3OC(F)(F)F)c2)n1` : 0.111 µM
